Origin of the recorded values: patent US20230158025A1

In this section, each of the compounds is paired with its reported Sol..
Test: aqueous kinetic solubility
Conditions: aqueous kinetic solubility

>  <COMPOUND>
CC1=C(C(=O)Nc2cccc(CN)c2)C(c2ccccc2Cl)N=C(Nc2nc3ccccc3o2)N1 (stereo not drawn)

>  <Sol.>
37.5 µg/mL

$$$$
>  <COMPOUND>
CC1=C(C(=O)NCc2ccccn2)C(c2ccccc2Cl)N=C(Nc2nc3ccccc3o2)N1 (stereo not drawn)

>  <Sol.>
1.8 µg/mL

$$$$
>  <COMPOUND>
CN(C)CCNC(=O)C1CC(=O)C2=C(C1)NC(Nc1nc3ccccc3o1)=NC2c1ccccc1Cl (stereo not drawn)

>  <Sol.>
61.78 µg/mL

$$$$
>  <COMPOUND>
CC1=C(C(=O)Nc2cccc(C(N)=O)c2)C(c2ccccc2Cl)N=C(Nc2nc3ccccc3o2)N1 (stereo not drawn)

>  <Sol.>
<1 µg/mL

$$$$
>  <COMPOUND>
CC1=C(C(=O)Nc2nnc(C(F)(F)F)s2)C(c2ccccc2Cl)N=C(Nc2nc3ccccc3o2)N1 (stereo not drawn)

>  <Sol.>
<1 µg/mL

$$$$
>  <COMPOUND>
COC(=O)c1ccccc1CNC(=O)C1=C(C)NC(Nc2nc3ccccc3o2)=NC1c1ccccc1Cl (stereo not drawn)

>  <Sol.>
<1 µg/mL

$$$$
>  <COMPOUND>
CC1=C(C(=O)Nc2nncs2)C2(Cc3ccccc32)N=C(Nc2nc3ccccc3o2)N1 (stereo not drawn)

>  <Sol.>
50.9 µg/mL

$$$$
>  <COMPOUND>
CCOC(=O)C1=C(C)NC(Nc2nc3ccccc3o2)=NC1c1ccccc1Cl (stereo not drawn)

>  <Sol.>
<1 µg/mL

$$$$
>  <COMPOUND>
CC1=C(C(=O)Nc2nncs2)C(c2ncccc2Cl)N=C(Nc2nc3ccccc3o2)N1 (stereo not drawn)

>  <Sol.>
10.6 µg/mL

$$$$
>  <COMPOUND>
COC(=O)c1cccc(NC(=O)C2=C(C)NC(Nc3nc4ccccc4o3)=NC2c2ccccc2Cl)n1 (stereo not drawn)

>  <Sol.>
<1 µg/mL

$$$$
>  <COMPOUND>
CC1=C(C(=O)Nc2nncs2)C(c2ccccc2Cl)N=C(Nc2nc3ccccc3o2)N1 (stereo not drawn)

>  <Sol.>
<1 µg/mL

$$$$
>  <COMPOUND>
CC1=C(C(=O)Nc2cc(C(=O)O)ccn2)C(c2ccccc2Cl)N=C(Nc2nc3ccccc3o2)N1C (stereo not drawn)

>  <Sol.>
>76 µg/mL

$$$$
>  <COMPOUND>
O=C(Nc1nncs1)C1=C(C(F)(F)F)NC(Nc2nc3ccccc3o2)=NC1c1ccccc1Cl (stereo not drawn)

>  <Sol.>
21.9 µg/mL

$$$$
>  <COMPOUND>
CCOC(=O)c1nnc(NC(=O)C2=C(C)NC(Nc3nc4ccccc4o3)=NC2c2ccccc2Cl)s1 (stereo not drawn)

>  <Sol.>
<1 µg/mL

$$$$
>  <COMPOUND>
CC1=C(C(=O)NCc2ccc(F)cc2)C(c2ccccc2Cl)N=C(Nc2nc3ccccc3o2)N1 (stereo not drawn)

>  <Sol.>
<1 µg/mL

$$$$
>  <COMPOUND>
CC1=C(C(=O)NCc2cnn(CC(F)(F)F)c2)C(c2ccc(C)cc2Cl)N=C(Nc2nc3ccc(F)c(N)c3o2)N1 (stereo not drawn)

>  <Sol.>
1.56 µg/mL

$$$$
>  <COMPOUND>
CC1=C(C(=O)NCc2cccc(C(=O)O)c2)C(c2ccccc2Cl)N=C(Nc2nc3ccccc3o2)N1 (stereo not drawn)

>  <Sol.>
60.6 µg/mL

$$$$
>  <COMPOUND>
CC1=C(C(=O)NCc2cnn(C)c2)C(c2ccccc2Cl)N=C(Nc2nc3ccccc3o2)N1 (stereo not drawn)

>  <Sol.>
24.2 µg/mL

$$$$
>  <COMPOUND>
CCn1cc(CNC(=O)C2=C(C)NC(Nc3nc4ccc(F)c(N)c4o3)=NC2c2ccc(Cl)cc2Cl)cn1 (stereo not drawn)

>  <Sol.>
<1 µg/mL

$$$$
>  <COMPOUND>
COC(=O)c1ccc(CNC(=O)C2=C(C)NC(Nc3nc4ccccc4o3)=NC2c2ccccc2Cl)cc1 (stereo not drawn)

>  <Sol.>
<1 µg/mL

$$$$
>  <COMPOUND>
CC1=C(C(=O)Nc2nncs2)C(c2ccccc2C(F)(F)F)N=C(Nc2nc3ccccc3o2)N1 (stereo not drawn)

>  <Sol.>
<1 µg/mL

$$$$
>  <COMPOUND>
CC1=C(C(=O)Nc2nncs2)C(c2ccc(Cl)cc2Cl)N=C(Nc2nc3ccccc3o2)N1 (stereo not drawn)

>  <Sol.>
<1 µg/mL

$$$$
>  <COMPOUND>
COC(=O)Cc1nnc(NC(=O)C2=C(C)NC(Nc3nc4ccccc4o3)=NC2c2ccccc2Cl)s1 (stereo not drawn)

>  <Sol.>
<1 µg/mL

$$$$
>  <COMPOUND>
CC1=C(C(=O)Nc2ccc(CN3CCOCC3)cc2)C(c2ccccc2Cl)N=C(Nc2nc3ccccc3o2)N1 (stereo not drawn)

>  <Sol.>
<1 µg/mL

$$$$
>  <COMPOUND>
CC1=C(C(=O)Nc2ccc(Cl)cn2)C(c2ccccc2Cl)N=C(Nc2nc3ccccc3o2)N1 (stereo not drawn)

>  <Sol.>
<1 µg/mL

$$$$
>  <COMPOUND>
CC1=C(C(=O)Nc2ccc(CN)cc2)C(c2ccccc2Cl)N=C(Nc2nc3ccccc3o2)N1 (stereo not drawn)

>  <Sol.>
10.0 µg/mL

$$$$
>  <COMPOUND>
CC1=C(C(=O)Nc2nnc(-c3ccncc3)s2)C(c2ccccc2Cl)N=C(Nc2nc3ccccc3o2)N1 (stereo not drawn)

>  <Sol.>
<1 µg/mL

$$$$
>  <COMPOUND>
CC1=C(C(=O)NCc2cnn(C)c2)C(c2ccc(C)cc2Cl)N=C(Nc2nc3ccc(F)c(C(=O)O)c3o2)N1 (stereo not drawn)

>  <Sol.>
26.3 µg/mL

$$$$
>  <COMPOUND>
CC1=C(C(=O)Nc2ccc(C#N)cc2)C(c2ccccc2Cl)N=C(Nc2nc3ccccc3o2)N1 (stereo not drawn)

>  <Sol.>
<1 µg/mL

$$$$
>  <COMPOUND>
CC1=C(C(=O)NCc2nc3ccccc3n2C)C(c2ccccc2Cl)N=C(Nc2nc3ccccc3o2)N1 (stereo not drawn)

>  <Sol.>
<1 µg/mL

$$$$
